B1: ZNF193 (parent)
chain: QCIECGKSFNRHCNLIRHQKIHTV

# Variants of: B1
# Test method notes: protein stability index of a GFP-peptide fusion (GPS, HEK-293T) (PSI 1-6); higher = more stable;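 note: lentivirally expressed fusions sorted by FACS into six bins by GFP to DsRed ratio, PSI derived from sequencing read proportions per bin multiplied by bin number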
# Condition: c terminus: a fixed tail appended
What protein stability index was measured for each of the following?

[[record]]
mutant_designation = "C13P"
value_type = "protein stability index"
result = 2.99

[[record]]
mutant_designation = "F9P"
value_type = "protein stability index"
result = 3.25

[[record]]
mutant_designation = "V24S"
value_type = "protein stability index"
result = 4.21

[[record]]
mutant_designation = "H22I"
value_type = "protein stability index"
result = 2.25

[[record]]
mutant_designation = "R11E"
value_type = "protein stability index"
result = 3.76

[[record]]
mutant_designation = "I3Y"
value_type = "protein stability index"
result = 3.38

[[record]]
mutant_designation = "H12T"
value_type = "protein stability index"
result = 3.71

[[record]]
mutant_designation = "C5N"
value_type = "protein stability index"
result = 1.79

[[record]]
mutant_designation = "T23F"
value_type = "protein stability index"
result = 2.85

[[record]]
mutant_designation = "K20H"
value_type = "protein stability index"
result = 2.9


// each variant listed below needs its protein stability index
1. H12A
2. S8R
3. I16W
4. N10H
5. N10E

1: 3.48; 2: 3.77; 3: 2.46; 4: 3.91; 5: 3.92
